# assay-overview: viability loss in pontine glioma line – cell-based, SU-DIPG-XIII, MIPE4.0, CellTiter-Glo, qHTS, dose response (AID 1347061);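 note: cells exposed to compound for 48 hours before readout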
# measurement-context: CellTiter-Glo ATP luminescence
Records with an inconclusive call do not appear. The source made the active and inactive calls. No cut-off is given here; in the data, nearly all actives have AC50 up to about 37 µM.
Hi! Could you answer with just one of these? true = active, false = inactive

QUERY: Fill in: this test's call for Cc1cccc(-c2[nH]ncc2-c2ccc3ncccc3n2)n1 is ___
RESULT: false

QUERY: Fill in: this test's call for Nc1ccc(C(=O)c2cc3c(ccc4ccccc43)[nH]2)cc1 is ___
RESULT: true

QUERY: Fill in: this test's call for COc1ccc(CC2SC(=O)NC2=O)cc1C(=O)NCc1ccc(C(F)(F)F)cc1 (centres undefined) is ___
RESULT: false

QUERY: Fill in: this test's call for CC[C@@H]1/C=C(\C)C[C@H](C)C[C@H](OC)[C@H]2O[C@@](O)(C(=O)C(=O)N3CCCC[C@H]3C(=O)O[C@H](/C(C)=C/[C@@H]3CC[C@H](Cl)[C@H](OC)C3)[C@H](C)[C@@H](O)CC1=O)[C@H](C)C[C@@H]2OC is ___
RESULT: false
